Biological target: T1, RA peptide (Octet assay of PS621 variants)
T1 construct: X… with X = R
Test: Octet (BLI), 30 C
Classify by measured Octet response: 1 if it is equal to or exceeds 9, 0 if it is smaller.

{"binder": "PS621 (other, UBR protein (UBR-box) parent of PS1101-PS1122) MHSKFSHAGRICGAKFKVGEPIYRCKECSFDDTCVLCVNCFNPKDHTGHHVYTTICTEFNNGICDCGDKEAWNHTLFCKAEEG", "class label": 1}

Q. Does the reported Octet response for PS1118 (designed binder, Variant of PS621) MHSKFSHAGRICGAKFKVGEPIYRCKECSFDDTCVLCVNCFNPKDHTGHHVYTTICTKFNNGICDCGDKEAWNHTLFCKAEEG fall at or above the 9 mark?
A. 1

Q. // inclusive: Octet response at least 9? input: PS1115 (designed binder, Variant of PS621) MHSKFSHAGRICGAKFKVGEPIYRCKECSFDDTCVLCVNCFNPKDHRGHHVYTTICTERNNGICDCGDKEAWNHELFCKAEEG
A. 1

Q. Given the entry PS1110 (designed binder, Variant of PS621) MHSKFSHAGRICGAKFKVGEPIYRCKECSFDDTCVLCVNCFNPKDHTGHHVYTTICTEFNNGECDCGDKEAWNHTLFCKAEEG , answer whether its Octet response meets or surpasses 9.
A. 0

Q. Identify whether the reported Octet response of the following binder is 9 or greater: PS1116 (designed binder, Variant of PS621) MHSKFSHAGRICGAKFKVGEPIYRCKECSFDDTCVLCVNCFNPKDHTYHHVYTTICTEFNNGICDCGDKEAWNHTLFCKAEEG
A. 0

Q. Given the entry PS1117 (designed binder, Variant of PS621) MHSKFSHAGRICGAKFKVGEPIYRCKECSFDDTCVLCVNCFNPKDHLGHHVYTTICTEFNNGICDCGDKEAWNHTLFCKAEEG , answer whether its Octet response meets or surpasses 9.
A. 0

Q. Has PS1111 (designed binder, Variant of PS621) MHSKFSHAGRICGAKFKVGEPIYRCKECSFDDTCVLCVNCFNPKDHTGHHVYTTICTEFNNGICDCGDKSAWNHTLFCKAEEG a recorded Octet response greater than or equal to 9?
A. 0

Q. State whether the measured Octet response reaches 9, counting equality as reaching it, for PS1104 (designed binder, Variant of PS621) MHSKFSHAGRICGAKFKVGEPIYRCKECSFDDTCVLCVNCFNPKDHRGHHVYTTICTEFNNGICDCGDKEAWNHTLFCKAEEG
A. 1
